- System: CD2F1 mice, L1210 leukemia ip, survival T/C
- Assay Remarks: NCI In Vivo Anticancer Drug Screen. Data for tumor model L1210 Leukemia (intraperitoneal) in CD2F1 (CDF1) mice
- Measurement Context: endpoint: mean survival time; dose: 100.0 mg/kg/injection; schedule: Q04DX002 (ip); vehicle: saline; higher = longer survival
Toxic doses and inconclusive results are not listed.
Please provide measured T/C for the entries that follow.

Lab note: measured T/C of Cn1c(N)c(N)c(=O)n(C)c1=O was 109 % of control

response.value for O=C(OC(=O)C(F)(F)C(F)(F)F)C(F)(F)C(F)(F)F (field: T/C) = 92 % of control

Note to self: T/C recorded for CN=C(N)CS was 101 % of control

Quick note, T/C for CNC landed at 86 % of control

Entry NC(CCl)=NCc1ccccn1 , T/C reported as 101 % of control

====

- Test system: CD2F1 mice, L1210 leukemia ip, survival T/C
- Assay Remarks: NCI In Vivo Anticancer Drug Screen. Data for tumor model L1210 Leukemia (intraperitoneal) in CD2F1 (CDF1) mice
- Measurement Context: endpoint: mean survival time; dose: 12.5 mg/kg/injection; schedule: Q01DX005 (ip); vehicle: other; higher = longer survival
Inconclusive results and toxic doses are left out.
Readout: T/C

Let me check: N#CC1=C(NC2OCC(O)C(O)C2O)CCC1 (centres undefined) , system CD2F1 mice, L1210 leukemia ip, survival T/C, measured T/C is 108 % of control

Nc1nc(NCCc2ccccc2)c2ncn(C3OC(CO)C(O)C3O)c2n1 (centres undefined) on CD2F1 mice, L1210 leukemia ip, survival T/C gives T/C = 102 % of control

Value sought: T/C, system CD2F1 mice, L1210 leukemia ip, survival T/C, item CNC(=O)c1nc2c(nc1NC)n(C)c(=O)n2C . Result: 93 % of control

Measured T/C for this entry Nc1ccc(-c2nc(=S)c3cn[nH]c3[nH]2)cc1 on CD2F1 mice, L1210 leukemia ip, survival T/C: 92 % of control

====

Please respond with reported T/C for every item in the list.
- Tested on: CD2F1 mice, L1210 leukemia ip, survival T/C
- Assay Remarks: NCI In Vivo Anticancer Drug Screen. Data for tumor model L1210 Leukemia (intraperitoneal) in CD2F1 (CDF1) mice
- Measurement Context: endpoint: mean survival time; dose: 100.0 mg/kg/injection; schedule: Q01DX009 (ip); vehicle: saline with Tween-80; higher = longer survival
Toxic doses and inconclusive results are not listed.

Kindly note the recorded T/C for COc1cc(OC)c(NC(=O)Oc2cc(C)c(Cl)c(C)c2Cl)cc1Cl , which is 94 % of control

Entry O=C(O)CCCCCCC(=O)c1ccccc1 ; T/C = 98 % of control

// T/C value for CCOC(=O)C(OC(=O)CC)c1ccccc1 (stereo not given) : 96 % of control

So for NNC(=O)c1cccc(C(=O)NN)c1 , the logged T/C turned out to be 96 % of control

Reported T/C of OC(C/C=C/c1ccccc1)(c1ccccc1)c1ccccc1 : 93 % of control

Entry under test: ON=C(Cc1ccccc1)Cc1ccccc1 . Its T/C was 103 % of control

Field T/C (entry CC(=O)Nc1c([N+](=O)[O-])cc2c3c(cccc13)CC2 ) reads 102 % of control

Summary for this molecule, CN(C)c1ccc(/C=N/NC(=O)CNC(=O)Nc2cccc(C(F)(F)F)c2)cc1 : T/C is 92 % of control

Briefly, T/C measured for Cc1ccccc1NC(=O)c1cc2ccccc2cc1O : 91 % of control

T/C reported for this molecule CCCC(CCC)=NN=C(CCC)CCC : 91 % of control

Value of T/C reported for the molecule COC(OC)C1C2C3C=CC(C4C(=O)OC(=O)C34)C12 (stereo not given) is 98 % of control

# T/C of CSc1nc2cc(C)c(C)cc2[nH]1 = 97 % of control

get_value(item= Clc1nc(Oc2ccccc2)nc(-c2cn(-c3ccccc3)c3ccccc23)n1 , readout=T/C) returns 95 % of control

Entry CCN(CC)CC(=O)Nc1c(C)cccc1C ; T/C = 89 % of control

Record summary for OC(CCCCl)CC(O)(C(F)(F)F)C(F)(F)F (stereo not given) : reported T/C = 102 % of control

// field: T/C; key: CC(C)C(O)C(C)N (stereo not given) ; value = 93 % of control

# T/C of COC(=O)CCC(=O)N(C)CCc1c[nH]c2ccccc12 = 100 % of control

According to the records, this molecule C/C=C\c1ccc(OCCOC(=O)Nc2ccc(C)cc2C)c(OC)c1 displays T/C of 96 % of control

Sure, the documented T/C for O=C1c2ccccc2C(=O)N1CCCCCBr is 96 % of control

Reported T/C ( Cc1ccc(NC(=O)/C=C/C(=O)O)cc1C ) = 101 % of control

Value of T/C reported for the molecule Cc1ncc([N+](=O)[O-])n1CCSC(N)=O is 100 % of control

Entry C/C(=N/O)c1cc(CN(C)C)oc1C ; T/C = 90 % of control

Documented T/C of COc1cc(/C=C2\SC(=O)NC2=O)ccc1O : 105 % of control

Kindly note the recorded T/C for O=C(CNC(=O)Nc1cccc([N+](=O)[O-])c1)N/N=C/c1ccc(F)cc1 , which is 93 % of control

get_value(item= O=[N+]([O-])c1ccc(N=Nc2ccc3c(c2)-c2ccccc2C3=P(c2ccccc2)(c2ccccc2)c2ccccc2)cc1 , readout=T/C) returns 91 % of control
